- Test system: MCF7
- protocol.notes: Inhibition of tumor cell proliferation, Sulforhodamin B assay (SRB assay), MCF7
- Type: cell-based
- run.parameters: Homo sapiens, MCF7; MCF-7 breast cancer cells, IC50 values ranging down to; read-out: inhibition of proliferation IC50
pIC50: −log10 of the molar value.
value.kind: pIC50

Task: Using known records, supply pIC50 for O=C1Nc2ncccc2C1=C1Nc2ncccc2C1=O
Output: ≤ 8.70
